# studySystem: Hexose transporter 1 (Plasmodium falciparum)
# testDescription: ST_JUDE_LEISH: Cytotoxicity at 2uM final concentration against transgenic Leishmania Mexicana promastigotes LmPfHT that are glucose transport deficient and complemented with the Plasmodium falciparum hexose transporter. Activity is measured by DNA content using SYBR green in vitro
# Type: functional

compound	studySystem	unitsLabel	inhibition
O=C(/C=C/c1ccc(Cl)c(Cl)c1)NC1CCC(CN2CCC(Cc3cc4ccccc4[nH]3)CC2)CC1 (stereo not given)	Hexose transporter 1 (Plasmodium falciparum)	%	1.97
O=C(/C=C/c1ccc(Cl)c(Cl)c1)NCCCCCN1CCN(C(=O)Nc2ccc(C(F)(F)F)cc2)CC1	Hexose transporter 1 (Plasmodium falciparum)	%	1.98
Cc1ccc(C(C)C)c(Oc2ccc3nc(N)nc(N)c3c2)c1	Hexose transporter 1 (Plasmodium falciparum)	%	8.97
COc1ccc2nc(N(CCCn3ccnc3)C(=O)C=Cc3cccs3)sc2c1	Hexose transporter 1 (Plasmodium falciparum)	%	3.16
Cn1c2ccccc2c2c3ccccc3c(CNC(CO)(CO)CO)cc21	Hexose transporter 1 (Plasmodium falciparum)	%	12.7
CCCN(CCCCCCN(CCC)CCc1ccc(O)c(O)c1)CCc1ccc(O)cc1	Hexose transporter 1 (Plasmodium falciparum)	%	12
COc1ccccc1C(=O)Nc1ccc(Nc2nc(C)cc(N(C)C)n2)cc1	Hexose transporter 1 (Plasmodium falciparum)	%	18.3
COc1ccc2nccc([C@@H](O)CN3CCC(NCc4cn5cc(F)ccc5n4)CC3)c2c1	Hexose transporter 1 (Plasmodium falciparum)	%	2.19
Nc1nc(N)c2c(ccc3ccccc32)n1	Hexose transporter 1 (Plasmodium falciparum)	%	28.9
NC1CCCN(Cc2cccc(-c3cccc(-c4nc5ccccc5[nH]4)c3)c2)C1 (stereo not given)	Hexose transporter 1 (Plasmodium falciparum)	%	6.48
CCC(NCc1ccc(-c2cncc(C(=O)NCC(C)C)c2)cc1)c1ccccc1 (stereo not given)	Hexose transporter 1 (Plasmodium falciparum)	%	7.18
O=C(Nc1ccc(C(F)(F)F)cc1)c1ccc(S(=O)(=O)NC2CCN(CC3CCCCC3)CC2)cc1	Hexose transporter 1 (Plasmodium falciparum)	%	0.54
Cc1ccc(Cn2nc(Cl)c(N3CCCNCC3)cc2=O)cc1NC(=O)Nc1ccc(-c2ccccc2)cc1	Hexose transporter 1 (Plasmodium falciparum)	%	1.72
O=C(CC(=O)Nc1cc(Cl)cc(Cl)c1)Nc1cc(Cl)cc(Cl)c1	Hexose transporter 1 (Plasmodium falciparum)	%	-3.47
O=C(/C=C/c1ccc(Cl)c(Cl)c1)NCCCCCCN1CCN(C(=O)Nc2cccc(Cl)c2)CC1	Hexose transporter 1 (Plasmodium falciparum)	%	1.97
Cc1ccc(C2=NNC3(S2)C(=O)N(C)c2ccccc23)cc1 (stereo not given)	Hexose transporter 1 (Plasmodium falciparum)	%	8.24
N=C(N)NN=Cc1ccccc1OCc1ccccc1Cl	Hexose transporter 1 (Plasmodium falciparum)	%	2.44
O=c1ccc2ccc(F)cc2n1CCN1CCC(NCc2ccc(-c3ccccn3)s2)CC1	Hexose transporter 1 (Plasmodium falciparum)	%	3.12
COc1ccc2nc3cc(Cl)ccc3c(Nc3ccc(O)c(CNC(C)C)c3)c2c1	Hexose transporter 1 (Plasmodium falciparum)	%	0.43
Cc1[nH]c(C)c(-c2ccc(-c3ccc(OC(F)(F)F)cc3)cc2)c(=O)c1Cl	Hexose transporter 1 (Plasmodium falciparum)	%	3.77
CNC(=O)C1Cc2c([nH]c3ccc(Br)cc23)C2(CCN(CCc3ccccc3)CC2)N1 (stereo not given)	Hexose transporter 1 (Plasmodium falciparum)	%	3.44
O=c1cc(NCCC(CNCCc2ccccc2)NCc2cc(Br)cc(Br)c2)[nH]c2ccccc12 (stereo not given)	Hexose transporter 1 (Plasmodium falciparum)	%	-3.71
O=C(/C=C/c1ccc(Cl)c(Cl)c1)NCCCCCN1CCC(NC(=O)c2cc(Cl)ccc2F)CC1	Hexose transporter 1 (Plasmodium falciparum)	%	1.12
Cc1cc(-c2cccc(CNCc3ccc(F)cc3)c2)ccc1S(=O)(=O)NCCN1CCCC1	Hexose transporter 1 (Plasmodium falciparum)	%	0.36
CNCCNCc1cccc(-c2cccc(-c3nc4cccc(C)c4[nH]3)c2)c1	Hexose transporter 1 (Plasmodium falciparum)	%	2.47
CCc1ccc(O)c(-c2cc(C(=O)Nc3ccc(OC)c(Cl)c3)[nH]n2)c1	Hexose transporter 1 (Plasmodium falciparum)	%	0.3
Clc1ccc(-c2ccc(CNCCCN3CCCC3)cc2)cc1	Hexose transporter 1 (Plasmodium falciparum)	%	3.04
Cc1ccnc(NC(=O)c2cc(-c3cccc([N+](=O)[O-])c3)nc3onc(C)c23)c1	Hexose transporter 1 (Plasmodium falciparum)	%	7.59
COc1ccc2nccc([C@@H](O)CN3CCC(NCc4cc5cccnc5[nH]4)CC3)c2n1	Hexose transporter 1 (Plasmodium falciparum)	%	14.9
O=C(Nc1cc(Cl)cc(Cl)c1)c1cc(Cl)c(=O)n(Cc2ccc(Cl)cc2)c1	Hexose transporter 1 (Plasmodium falciparum)	%	5.94

Ref: ChEMBL document CHEMBL3433997
